B1: Chromodomain-helicase-DNA-binding protein 5, residues 411 to 463; numbered along this chain, Q8TDI0 (parent)
chain: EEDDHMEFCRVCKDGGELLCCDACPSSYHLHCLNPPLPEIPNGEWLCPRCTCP

# Variants of: B1
# assay_summary: abundance fitness (aPCA) (normalised: wild type 0, dead -1); higher = more abundant; growth selection in yeast, the domain comes from the species named
# condition_set: Homo sapiens
abundance fitness reference
Just the number.

Study these solved cases before continuing.
P36H: -0.211
P25L: -0.157
L30I: -0.002
H29V: -0.882
I40C: 0.116

Okay, now this variant:
Task: # abundance fitness lookup, item C32M
Output: -0.736

Provenance of the data: the Human Domainome abundance scans (Beltran et al. 2025)
